tested on: VZV strain Ellen; assay: VZV Antiviral (ELISA) Assay; assay type: cell-based, varicella-zoster virus; conditions: Human alphaherpesvirus 3, Fibroblast, read-out: % inhibition 10 ug/ml VZV, 10 ug/ml; human foreskin fibroblast cells
I'd be grateful if you could share measured inhibition at 10 µg/mL for these entries.

Return inhibition at 10 µg/mL (reported value) for this compound: COCCN(C)c1ccc(NC(=S)Nc2ccc(NC(C)=O)cc2)cc1Cl [Example 317]
30%

Return inhibition at 10 µg/mL (reported value) for this compound: CC(=O)Nc1ccc(NC(=S)Nc2cc(Cl)c(O)c(Cl)c2)cc1 [Example 108]
28%

Return inhibition at 10 µg/mL (reported value) for this compound: COc1ccc(NC(=S)Nc2ccc(NC(C)=O)cc2)c(OC)c1Cl [Example 179]
35%

Return inhibition at 10 µg/mL (reported value) for this compound: CC(=O)Nc1ccc(NC(=S)Nc2cc(Cl)c(-n3cccc3)cc2Oc2ccc(Cl)cc2)cc1 [Example 900]
124%

Return inhibition at 10 µg/mL (reported value) for this compound: COc1cc(OC)c(NC(=S)Nc2ccc(NC(C)=O)c(C#N)c2)cc1Cl [Example 259]
28%
